- method_description: Cytotoxicity against human A431 cells after 3 days by sulforhodamine B assay
- Type: cell-based, A-431
- experimental_setup: read-out: ED50
measurement_name: CC50 at 72 h (µg/mL)
Numeric answer only, unit µg/mL assumed.

Problem: Dear colleague, I am looking for the recorded CC50 at 72 h of the following compound: COc1ccc2cc1Oc1ccc(cc1)C[C@H]1c3cc(c(OC)cc3CCN1C)Oc1c(OC)c(OC)cc3c1[C@@H](C2)N(C)CC3
Result: 8.4

Problem: Can you handle COc1ccc2cc1Oc1ccc(cc1)C[C@H]1c3c(cc(OC)c(O)c3Oc3cc4c(cc3OC)CCN(C)[C@@H]4C2)CCN1C next?
Result: 8.9

Problem: Input COc1ccc2cc1Oc1ccc(cc1)C[C@H]1c3cc(c(OC)cc3CCN1C)Oc1c(O)c(OC)cc3c1[C@@H](C2)N(C)CC3
Result: 4.9

Problem: Field entry: COc1ccc2cc1Oc1ccc(cc1)C[C@H]1c3c(cc(OC)c(O)c3Oc3cc4c(cc3OC)CCN[C@@H]4C2)CCN1C
Result: 8.3

* * *

- method_description: Selectivity index, ratio of ED50 for human BCA1 cells to ED50 for chloroquine-resistant Plasmodium falciparum W2
- Format: toxicity, cell-based
- experimental_setup: read-out: Ratio ED50
measurement_name: selectivity ratio
The answer should be a number; do not append a unit.

Problem: Data request, read-out selectivity ratio, for COc1ccc2cc1Oc1ccc(cc1)C[C@H]1c3c(cc(OC)c(O)c3Oc3cc4c(cc3OC)CCN[C@@H]4C2)CCN1C
Result: 21

Problem: Cool, now COc1ccc2cc1Oc1ccc(cc1)C[C@H]1c3c(cc4c(c3Oc3cc5c(cc3OC)CCN(C)[C@@H]5C2)OCO4)CCN1C
Result: 16

Problem: Also, C=C[C@H]1CN2CC[C@H]1C[C@H]2[C@H](O)c1ccnc2ccc(OC)cc12 please.
Result: 649

Problem: Try COc1ccc2cc1Oc1ccc(cc1)C[C@H]1c3c(cc4c(c3Oc3cc5c(cc3OC)CCN[C@@H]5C2)OCO4)CCN1C next.
Result: 13

Problem: COc1ccc2cc1Oc1ccc(cc1)C[C@H]1c3cc(c(OC)cc3CCN1C)Oc1c(OC)c(OC)cc3c1[C@@H](C2)N(C)CC3 , same question.
Result: 99

Problem: // same read-out, input: COc1ccc2cc1Oc1ccc(cc1)C[C@H]1c3cc(c(OC)cc3CCN1C)Oc1c(OC)c(OC)cc3c1[C@@H](C2)NCC3
Result: 97

Problem: Proceed to OC(c1cc(C(F)(F)F)nc2c(C(F)(F)F)cccc12)C1CCCCN1 (configuration not stated)
Result: 4420

* * *

- method_description: Cytotoxicity against human BCA1 cells after 3 days by sulforhodamine B assay
- Format: cell-based
- experimental_setup: read-out: ED50
I'd appreciate it if you could supply CC50 at 72 h values for the items below.
Write down the numeric answer in µg/mL and omit the unit.

Problem: Data request, read-out CC50 at 72 h, for COc1ccc2cc1Oc1ccc(cc1)C[C@H]1c3c(cc(OC)c4c3Oc3cc5c(cc3O4)CCN=C5C2)CCN1C
Result: 4.6

Problem: Query COc1ccc2cc1Oc1ccc(cc1)C[C@H]1c3cc(c(OC)cc3CCN1C)Oc1c(OC)c(OC)cc3c1[C@@H](C2)NCC3 next
Result: 4.4

Problem: Note, next up: COc1ccc2cc1Oc1ccc(cc1)C[C@H]1c3c(cc(OC)c(O)c3Oc3cc4c(cc3OC)CCN[C@@H]4C2)CCN1C
Result: 4.6

Problem: // repeat for COc1ccc2cc1Oc1ccc(cc1)C[C@H]1c3c(cc(OC)c(OC)c3Oc3cc4c(cc3OC)CCN[C@@H]4C2)CCN1C and report
Result: 3.2

Problem: Would you mind doing COc1ccc2cc1Oc1ccc(cc1)C[C@H]1c3c(cc4c(c3Oc3cc5c(cc3OC)CCN[C@@H]5C2)OCO4)CCN1C as well?
Result: 1.7

Problem: COc1ccc2cc1Oc1ccc(cc1)C[C@H]1c3c(cc(O)c(OC)c3Oc3cc4c(cc3OC)CCN(C)[C@@H]4C2)CCN1C ?
Result: 4.7

Problem: Can you handle COc1ccc2cc1Oc1ccc(cc1)C[C@H]1c3cc(c(OC)cc3CCN1C)Oc1c(O)c(OC)cc3c1[C@@H](C2)N(C)CC3 next?
Result: 5

Problem: // next record COc1ccc2cc1Oc1ccc(cc1)C[C@H]1c3c(cc4c(c3Oc3cc5c(cc3OC)CCN(C)[C@@H]5C2)OCO4)CCN1C [CEPHARANTHINE]
Result: 4.7

Problem: Next: COc1ccc2cc1Oc1ccc(cc1)C[C@H]1c3c(cc(OC)c(O)c3Oc3cc4c(cc3OC)CCN(C)[C@@H]4C2)CCN1C [HOMOAROMOLINE]
Result: 3.6

Problem: Same read-out for COc1ccc2cc1Oc1ccc(cc1)C[C@H]1c3c(cc(OC)c(OC)c3Oc3cc4c(cc3OC)CCN(C)[C@@H]4C2)CCN1C [OBABERINE] ?
Result: 4.6

Problem: What about this compound? COc1ccc2cc1Oc1ccc(cc1)C[C@H]1c3cc(c(OC)cc3CCN1C)Oc1c(OC)c(OC)cc3c1[C@@H](C2)N(C)CC3
Result: 5.4

Problem: What would you report for COc1ccc2cc1Oc1ccc(cc1)C[C@H]1c3cc(c(OC)cc3CCN1C)Oc1c(O)c(OC)cc3c1[C@@H](C2)NCC3 ?
Result: 4.1

Problem: What do you have for COc1ccc2cc1Oc1ccc(cc1)C[C@H]1c3c(cc(OC)c4c3Oc3cc5c(cc3O4)CCN(C)[C@@H]5C2)CCN1C ?
Result: 2.3

Problem: What about this compound? OC(c1cc(C(F)(F)F)nc2c(C(F)(F)F)cccc12)C1CCCCN1 (stereo unspecified) [MEFLOQUINE]
Result: 5.3

* * *

- method_description: Selectivity index, ratio of ED50 for human LUC1 cells to ED50 for chloroquine-sensitive Plasmodium falciparum D6
- Assay type: toxicity, cell-based
- experimental_setup: read-out: Ratio ED50
The label true (1) is reserved for selectivity ratio strictly under 60; false (0) covers values equal to or above it.

Problem: Say whether its selectivity ratio is strictly beneath 60. Entry: COc1ccc2cc1Oc1ccc(cc1)C[C@H]1c3c(cc(OC)c(O)c3Oc3cc4c(cc3OC)CCN(C)[C@@H]4C2)CCN1C [HOMOAROMOLINE]
Result: false (0)

Problem: Same again, this time with COc1ccc2cc1Oc1ccc(cc1)C[C@H]1c3c(cc(OC)c4c3Oc3cc5c(cc3O4)CCN(C)[C@@H]5C2)CCN1C
Result: false (0)

Problem: Please give the result for COc1ccc2cc1Oc1ccc(cc1)C[C@H]1c3cc(c(OC)cc3CCN1C)Oc1c(O)c(OC)cc3c1[C@@H](C2)NCC3 too.
Result: false (0)

Problem: Cool, now COc1ccc2cc1Oc1ccc(cc1)C[C@H]1c3c(cc4c(c3Oc3cc5c(cc3OC)CCN[C@@H]5C2)OCO4)CCN1C
Result: true (1)

Problem: Also, COc1ccc2cc1Oc1ccc(cc1)C[C@H]1c3c(cc4c(c3Oc3cc5c(cc3OC)CCN(C)[C@@H]5C2)OCO4)CCN1C [CEPHARANTHINE] please.
Result: true (1)

* * *

- method_description: Cytotoxicity against human SK-MEL-2 cells after 3 days by sulforhodamine B assay
- Assay type: cell-based
- experimental_setup: read-out: ED50
measurement_name: CC50 at 72 h (µg/mL)
The reply should be a number in µg/mL, with the unit left off.

Problem: # CC50 at 72 h lookup, item COc1ccc2cc1Oc1ccc(cc1)C[C@H]1c3c(cc(OC)c4c3Oc3cc5c(cc3O4)CCN(C)[C@@H]5C2)CCN1C
Result: 8.7

Problem: What do we get for COc1ccc2cc1Oc1ccc(cc1)C[C@H]1c3c(cc(OC)c(OC)c3Oc3cc4c(cc3OC)CCN[C@@H]4C2)CCN1C ?
Result: 14.5

Problem: // query: COc1ccc2cc1Oc1ccc(cc1)C[C@H]1c3c(cc(OC)c(OC)c3Oc3cc4c(cc3OC)CCN(C)[C@@H]4C2)CCN1C [OBABERINE]
Result: 20

Problem: And the next one, COc1ccc2cc1Oc1ccc(cc1)C[C@H]1c3c(cc(OC)c(O)c3Oc3cc4c(cc3OC)CCN[C@@H]4C2)CCN1C ?
Result: 13.4

Problem: Also need COc1ccc2cc1Oc1ccc(cc1)C[C@H]1c3cc(c(OC)cc3CCN1C)Oc1c(O)c(OC)cc3c1[C@@H](C2)NCC3 , thanks.
Result: 15.4

Problem: And COc1ccc2cc1Oc1ccc(cc1)C[C@H]1c3c(cc(OC)c4c3Oc3cc5c(cc3O4)CCN=C5C2)CCN1C ?
Result: 9.9

Problem: Cool, now COc1ccc2cc1Oc1ccc(cc1)C[C@H]1c3cc(c(OC)cc3CCN1C)Oc1c(O)c(OC)cc3c1[C@@H](C2)N(C)CC3
Result: 14.9

Problem: // same read-out, input: COc1ccc2cc1Oc1ccc(cc1)C[C@H]1c3c(cc4c(c3Oc3cc5c(cc3OC)CCN(C)[C@@H]5C2)OCO4)CCN1C [CEPHARANTHINE]
Result: 14.5

Problem: Thanks! And COc1ccc2cc1Oc1ccc(cc1)C[C@H]1c3c(cc(OC)c(O)c3Oc3cc4c(cc3OC)CCN(C)[C@@H]4C2)CCN1C [HOMOAROMOLINE] ?
Result: 9

Problem: Follow-up entry: OC(c1cc(C(F)(F)F)nc2c(C(F)(F)F)cccc12)C1CCCCN1 (configuration not stated) [MEFLOQUINE]
Result: 8.9

Problem: And for COc1ccc2cc1Oc1ccc(cc1)C[C@H]1c3cc(c(OC)cc3CCN1C)Oc1c(OC)c(OC)cc3c1[C@@H](C2)N(C)CC3 ?
Result: 19.5

Problem: Next record, please: COc1ccc2cc1Oc1ccc(cc1)C[C@H]1c3c(cc4c(c3Oc3cc5c(cc3OC)CCN[C@@H]5C2)OCO4)CCN1C
Result: 10.5
